Hey, just so you know, these numbers are from ChEMBL document CHEMBL1158198.

Measurement record for Acetylcholinesterase (Electrophorus electricus, UniProt O42275); quantity recorded: IC50.
Reported metric: IC50 (µM)

| Compound | System name | Reading unit | Readout value |
| --- | --- | --- | --- |
| C/C=C1/CN2[C@H]3Cc4c([nH]c5ccccc45)[C@@H]2C[C@@H]1[C@]3(CO)C(=O)OC | Acetylcholinesterase (Electrophorus electricus, UniProt O42275) | µM | 188 |
| CCc1[nH]c2ccccc2c1CCN1CCCC(CC)C1 (centres undefined) [DECARBOMETHOXYTETRAHYDROSECODINE] | Acetylcholinesterase (Electrophorus electricus, UniProt O42275) | µM | 203 |
| CC[C@@H]1CCCN(CCc2c(C(C)=O)[nH]c3ccccc23)C1 | Acetylcholinesterase (Electrophorus electricus, UniProt O42275) | µM | 175 |
| C/C=C1\CN2[C@H]3C[C@H]1C(C(=O)OC)[C@@H]2Cc1c3n(C)c2ccc(OC)cc12 (some centres undefined) | Acetylcholinesterase (Electrophorus electricus, UniProt O42275) | µM | 135 |
| CCC(=O)N1c2c(O)cccc2[C@]23CCN4CCC[C@@]5(CC[C@@H]12)CC(=O)O[C@@]453 | Acetylcholinesterase (Electrophorus electricus, UniProt O42275) | µM | 241 |
| C/C=C1/CN2CC[C@]34C(=C(C(=O)OC)[C@H]1C[C@H]23)Nc1ccccc14 | Acetylcholinesterase (Electrophorus electricus, UniProt O42275) | µM | 221 |
| CCC(=O)N1c2c(ccc(OC)c2O)[C@]23CCN4CCC[C@@]5(CC[C@@H]12)CC(=O)O[C@@]453 | Acetylcholinesterase (Electrophorus electricus, UniProt O42275) | µM | 197 |
| CC[C@H]1[C@@H]2CCN3CC[C@@]4(C(=C2C(=O)OC)Nc2ccccc24)[C@@H]13 | Acetylcholinesterase (Electrophorus electricus, UniProt O42275) | µM | 108 |
| COC(=O)[C@@H]1[C@H]2C[C@H]3c4[nH]c5ccccc5c4CCN3C[C@@H]2CC[C@@H]1O | Acetylcholinesterase (Electrophorus electricus, UniProt O42275) | µM | 431 |
